Target: T1, Sulfotyrosine CCR2b biotin peptide (human)
T1 construct: also called CCR2b peptide
T1 peptide: TTFFD[sY]D[sY]GAPSHGGK(Biotin)
Test: ELISA, 50 nM mAb
Non-standard residues stand in square brackets, D forms with d. No end group written: not given here. *: point of attachment. Biotin = O=C1N[C@H]2[C@H](CS[C@H]2CCCCC(=O)*)N1; sY = N[C@@H](Cc1ccc(OS(=O)(=O)O)cc1)C(=O)O
Metric Name: binding normalized to PSGL-1

binding normalized to PSGL-1 for 16L15 (antibody, V domains shown, From mouse immunisation; only variable domains given) VH: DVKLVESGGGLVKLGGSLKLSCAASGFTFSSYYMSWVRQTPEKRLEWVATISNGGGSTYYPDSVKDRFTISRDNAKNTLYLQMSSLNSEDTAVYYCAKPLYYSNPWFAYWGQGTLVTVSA VL: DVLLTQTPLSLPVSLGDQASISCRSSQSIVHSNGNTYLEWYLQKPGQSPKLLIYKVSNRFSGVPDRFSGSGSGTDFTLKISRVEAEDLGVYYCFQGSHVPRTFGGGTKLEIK is 0.03

binding normalized to PSGL-1 for 06C04 (antibody, IgG4, V domains shown) VH: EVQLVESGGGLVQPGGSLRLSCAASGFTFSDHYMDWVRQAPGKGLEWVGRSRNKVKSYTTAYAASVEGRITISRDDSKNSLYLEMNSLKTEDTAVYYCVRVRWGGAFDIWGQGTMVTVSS VL: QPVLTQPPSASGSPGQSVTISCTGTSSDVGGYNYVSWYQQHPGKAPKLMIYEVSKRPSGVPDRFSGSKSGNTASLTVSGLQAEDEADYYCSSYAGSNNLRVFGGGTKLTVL is 0.23

binding normalized to PSGL-1 for 09D04 (antibody, IgG4, V domains shown) VH: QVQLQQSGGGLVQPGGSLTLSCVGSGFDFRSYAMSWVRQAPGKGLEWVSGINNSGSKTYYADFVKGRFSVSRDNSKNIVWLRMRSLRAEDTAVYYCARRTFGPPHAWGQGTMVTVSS VL: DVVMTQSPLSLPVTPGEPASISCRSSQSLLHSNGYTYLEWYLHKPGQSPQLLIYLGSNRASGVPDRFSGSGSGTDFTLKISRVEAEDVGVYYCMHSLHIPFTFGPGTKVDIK is 0.37

binding normalized to PSGL-1 for 07E07 (antibody, IgG4, V domains shown) VH: QVQLQQSGAEVKKPGASVKVSCKASGYTFTSYYMHWVRQAPGQGLEWMGIINTSSGSTKYAQRFQDRVTVTRDTSTTTVYMELNSLRSEDTAVYYCARGGRAYSGSFDNWGQGTLVTVSS VL: DVVMTQSPLSLPVTLGQPASISCRSSQSLVHRDGNTYFNWFQQRPGQSPRRLIYKVSNRDSGVPDRFSGSGSGTDFTLKISRVEAEDVGVYYCMQATHWPRTFGQGTKVEIK is 0.75

binding normalized to PSGL-1 for 01A04 (antibody, IgG4, V domains shown) VH: EVQLVQSGAEVKKPGASVKVSCKASGYTFTSYYIHWVRQAPGQGLEWMGIIRPSGGSTSYAQKFQGRVTMTRDTSTSTVYMELSSLRSEDTAMYYCARVGVGSFDYWGQGTLVTVSS VL: DIQMTQSPSTLSASVGDRVTITCRASQSVSNWLAWYQQKPGKAPKLLIYKASSLESGVPSRFSGSGSGTEFTLTISSLQPDDFATYYCQWFRTFGPGTKVDIK is 0.08
